Origin of measurements: patent US20250388688A1

The reader will find reported ELISA (OD 450) at 33.3 nM values listed item by item below.
molecular target: soluble TSHR protein (ELISA coat) (human, UniProt P16473 22-260, limits assumed); assay: ELISA, plate coated with soluble TSHR, antibody at 33.3 nM, anti-human IgG Fc-HRP;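 further: binding of antibody variants to plate-bound soluble TSHR (coated at 2 µg/ml), with bound human IgG detected by HRP conjugate and colour developed using TMB substrate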
Write down the numeric answer in OD 450 and omit the unit.

Completed entries (count: 4):
- binder: "TSHB-8 (antibody, V domains shown) VH: EVQLVQSGAEVKKPGESLKISCKASGYSLTDNWIGWVRQKPGKGLEWMGIIYPGDSDTRYSPSFQGQVTISADKSISTAYLQWSSLKASDTAMYYCVGLDWNYNPLRYWGQGTLVTVSS VL: QSVLTQPPSVSAAPGQKVTISCSGSSSDIGSNYVSWYQQFPGTAPKLLIYDNNKRPSAIPDRFSGSKSGTSATLGITGLQTGDEADYYCGTWDSRLGIAVFGGGTQLTVL"
  ELISA (OD 450) at 33.3 nM: 0.471
- binder: "TSHB-23 (antibody, V domains shown) VH: EVQLVQSGAEVKKPGESLKISCKASGYSLTDNWIGWVRQKPGKGLEWMGIIYPGDSDTRYSPSFQGQVTISADKSISTAYLQWSSLKASDTAIYYCVGLDWNYNPLRYWGQGTLVTVSS VL: QSVLTQPPSVSAAPGQKVTISCSGSSSDIGSNYVSWYQQLPGTAPKLLIYDNNKRPSGIPDRFSGSKSGTSATLGITGLQTGDEADYYCGTWDSRLGIAVFGGGTQLTVL"
  ELISA (OD 450) at 33.3 nM: 0.512
- binder: "TSHB-24 (antibody, V domains shown) VH: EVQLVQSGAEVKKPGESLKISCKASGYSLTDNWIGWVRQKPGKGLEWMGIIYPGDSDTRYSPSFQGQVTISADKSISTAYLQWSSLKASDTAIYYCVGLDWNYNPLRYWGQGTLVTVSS VL: QSVLTQPPSVSGAPGQRVTISCSGSSSDIGSNYVSWYQQLPGTAPKLLIYDNNKRPSGVPDRFSGSKSGTSASLAITGLQAEDEADYYCGTWDSRLGIAVFGGGTKLTVL"
  ELISA (OD 450) at 33.3 nM: 0.425
- binder: "TSHB-3 (antibody, V domains shown) VH: EVQLVQSGAEVKKPGESLKISCKASGYSLTDNWIGWVRQKPGKGLEWMGIIYPGDSDTRYSPSFQGQVTISADKSISTAYLQWSSLKASDTAIYYCVGLEWNYNPLRYWGQGTLVTVSS VL: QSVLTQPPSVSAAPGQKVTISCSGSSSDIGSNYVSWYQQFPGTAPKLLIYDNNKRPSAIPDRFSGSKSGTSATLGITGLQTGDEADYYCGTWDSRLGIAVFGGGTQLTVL"
  ELISA (OD 450) at 33.3 nM: 0.351

Proceeding to the next binder to report its ELISA (OD 450) at 33.3 nM.
Which ELISA (OD 450) at 33.3 nM is listed for TSHB-1 (antibody, V domains shown) VH: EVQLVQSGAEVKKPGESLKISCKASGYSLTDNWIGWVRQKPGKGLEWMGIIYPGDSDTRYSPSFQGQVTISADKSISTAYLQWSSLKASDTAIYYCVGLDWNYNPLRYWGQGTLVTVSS VL: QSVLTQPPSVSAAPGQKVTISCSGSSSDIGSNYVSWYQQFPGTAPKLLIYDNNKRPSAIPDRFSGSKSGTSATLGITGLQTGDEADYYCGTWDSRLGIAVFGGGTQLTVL ?
0.442
